Taken from patent US20150315188A1.

Percentage inhibition of ligand binding, Adrenergic α1B (0.1 μM) values by entry
- targetUnderTest: Human adrenergic α1B receptor (Homo sapiens, UniProt P35368)
- Sequence (P35368 whole entry): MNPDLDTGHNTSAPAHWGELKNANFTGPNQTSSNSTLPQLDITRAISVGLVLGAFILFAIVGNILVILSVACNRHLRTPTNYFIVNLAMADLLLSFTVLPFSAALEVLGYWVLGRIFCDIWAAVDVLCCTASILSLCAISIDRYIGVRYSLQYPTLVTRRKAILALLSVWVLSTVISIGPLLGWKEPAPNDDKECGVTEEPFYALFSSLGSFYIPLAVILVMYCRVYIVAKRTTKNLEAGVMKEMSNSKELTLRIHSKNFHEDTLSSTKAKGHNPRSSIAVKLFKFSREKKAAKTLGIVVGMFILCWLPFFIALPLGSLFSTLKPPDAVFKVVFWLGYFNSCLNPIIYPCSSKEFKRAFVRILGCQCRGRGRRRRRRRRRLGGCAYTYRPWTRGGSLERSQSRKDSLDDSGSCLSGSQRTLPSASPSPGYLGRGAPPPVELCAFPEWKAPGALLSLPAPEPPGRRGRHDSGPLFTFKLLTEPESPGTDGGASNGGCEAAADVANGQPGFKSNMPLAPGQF
- experimentalDetails: Radioligand binding, adrenergic α1B (Protocol Group B)
- Design: purchased Milipore (Millipore)
- statedConditions: 0.1 μM compound; Protocol Group B; 0.1 µM
Answer in %, number only, no unit symbol.

compound	numericReadout
CC(O)(Cn1c2c(c3cc(Cl)cc(F)c31)C1CCCN1CC2)c1ccncc1 (single isomer, unassigned) [52d]	−1

In plain terms, Cc1cc(Cl)c2c(c1)c1c(n2CC(C)(O)c2ccncc2)CCN2CCCC12 (single isomer, unassigned) [91d] has a documented Percentage inhibition of ligand binding, Adrenergic α1B (0.1 μM) of −19

Percentage inhibition of ligand binding, Adrenergic α1B (0.1 μM) measured on Cc1cc(F)c2c(c1)c1c(n2CC(C)(O)c2ccncc2)CCN2CCCC12 (single isomer, unassigned) [81c] = 2

The recorded Percentage inhibition of ligand binding, Adrenergic α1B (0.1 μM) for Cc1cc(C)c2c(c1)c1c(n2CC(C)(O)c2cccnc2)CCN2CCCC12 (single isomer, unassigned) [44d] is −5

Form field Percentage inhibition of ligand binding, Adrenergic α1B (0.1 μM), entry OC(Cn1c2c(c3cc(Cl)ccc31)C1CCCN1CC2)c1ccncc1 (single isomer, unassigned) [143c] : 9

Notebook: Cc1ccc2c(c1)c1c(n2CC(C)(O)c2ccc(F)cc2)CC2CCC1N2C (single isomer, unassigned) [102a] , Percentage inhibition of ligand binding, Adrenergic α1B (0.1 μM) read as 5

----------
- targetUnderTest: Human adrenergic α2A receptor (Homo sapiens)
- experimentalDetails: β-Arrestin GPCR functional assay, adrenergic α2A (Protocol B)
- statedConditions: β-arrestin, antagonist vs nor-epinephrine EC80
readout: pIC50
Friendly reminder that pIC50 comes from taking -log10 of the concentration in mol/L.

Before answering, review these 2 worked examples.
molecule	numericReadout
Cc1cc(F)c2c(c1)c1c(n2CC(C)(O)c2cccnc2)CCN2CCCC12 (stereo not drawn) [Compound No. 79a]	6.17
Cc1cc(F)c2c(c1)c1c(n2CC(C)(O)c2ccncc2)CCN2CCCC12 (single isomer, unassigned) [81a]	5.90

Summary for this molecule, Cc1ccc2c(c1)c1c(n2C[C@@H](OC2CCCC2)c2ccncc2)CCN2CCC[C@H]12 : pIC50 is 6.17

----------
- targetUnderTest: UniProtKB P08913
- experimentalDetails: Radioligand binding, adrenergic α2A (Protocol Group B)
- Design: purchased Milipore (Millipore)
- statedConditions: 0.3 μM compound; Protocol Group B; read-out: Percentage inhibition of ligand binding, Adrenergic α2A (0.3 μM)
Quick rule: inhibition at 0.3 µM of at least 40% means 1, below that means -1.

Solved cases (5 shown):
compound	targetUnderTest	cat
CC(O)(Cn1c2c(c3cc(Cl)cc(F)c31)CN1CCCC1C2)c1cccnc1 (single isomer, unassigned) [63c]	UniProtKB P08913	-1
Cc1ccc2c(c1)c1c(n2CC(C)(O)c2ccncc2)CC2CCCN2C1 (single isomer, unassigned) [37a]	UniProtKB P08913	-1
Cc1ccc2c(c1)c1c(n2CC(O)c2ccncc2)CC[N+]2([O-])CCCC12 (stereo not drawn)	UniProtKB P08913	1
Cc1ccc2c(c1)c1c(n2CC(C)(O)c2cnc3ccccc3c2)CCN(C)C1 (single isomer, unassigned) [32a]	UniProtKB P08913	-1
Cc1cc(F)cc2c3c(n(CC(O)c4ccncc4)c12)CCN1CCCC31 (single isomer, unassigned) [136a]	UniProtKB P08913	1

Now consider a different compound.
Request: Form field: inhibition at 0.3 µM at least 40%? Entry: Cc1ccc2c(c1)c1c(n2CC(O)c2cccnc2)C(F)(F)CN(C)C1 (stereo not drawn)
Result: -1

----------
- targetUnderTest: UniProt P18089
- experimentalDetails: Radioligand binding, adrenergic α2B (Protocol Group B)
- Set-up: purchased Milipore (Millipore)
- statedConditions: 10 nM compound; Protocol Group B; read-out: Percentage inhibition of ligand binding, Adrenergic α2B (10 nM)
- Method: To evaluate the activity of compounds in radioligand binding assays, Human adrenergic α2B receptor obtained from recombinant cell membrane from Milipore. Binding experiments were carried out in Tris-HCl buffer (50 mM Tris-HCl buffer, pH 7.4, 5 mM Mgcl2, 1 mM Cacl2, 0.2% BSA) as recommended by Milipore. […] Non-specific binding was estimated in the presence of 10 μM Rauwolscine. […] Compounds were screened at various concentrations, using 1% DMSO as vehicle. […]
readout: inhibition at 0.01 µM (%)
Write it as a number; the unit % goes unstated.

Consider the worked cases shown below.
compound	numericReadout
Cc1cc(C)c2c(c1)c1c(n2CC(C)(O)c2ccncc2)CCN2CCCC12 (single isomer, unassigned) [19a]	94
OCc1ccc2c(c1)c1c(n2CC(O)c2ccncc2)CCN2CCCC12 (centres unmarked)	31
Cc1ccc2c(c1)c1c(n2CC(OCC2CCC2)c2ccncc2)CCN(C)C1 (centres unmarked) [59b]	84

// inhibition at 0.01 µM value for OC(Cn1c2c(c3cc(Cl)cc(F)c31)C1CCCN1CC2)c1ccncc1 (single isomer, unassigned) [135a] : 79

Per the records, this compound ( Cc1ccc2c(c1)c1c(n2C[C@@H](OC2CCCC2)c2ccncc2)CCN2CCC[C@H]12 ) has inhibition at 0.01 µM equal to 98

// inhibition at 0.01 µM value for Cc1ccc2c(c1)c1c(n2CC(C)(O)c2cnc3ccccc3c2)CCN(C)C1 (single isomer, unassigned) [32a] : 28

The recorded inhibition at 0.01 µM for Cc1ccc2c(c1)c1c(n2CC(O)c2ccncc2F)CCN2CCCC12 (centres unmarked) is 81

Recorded inhibition at 0.01 µM (compound Cc1ccc2c(c1)c1c(n2CC(O)c2cccnc2)C(O)CN(C)C1 (centres unmarked) ): -25

----------
# inhibition at 0.1 µM per entry
- targetUnderTest: Human adrenergic α2A receptor (Homo sapiens, UniProt P08913)
- Sequence (P08913 whole entry): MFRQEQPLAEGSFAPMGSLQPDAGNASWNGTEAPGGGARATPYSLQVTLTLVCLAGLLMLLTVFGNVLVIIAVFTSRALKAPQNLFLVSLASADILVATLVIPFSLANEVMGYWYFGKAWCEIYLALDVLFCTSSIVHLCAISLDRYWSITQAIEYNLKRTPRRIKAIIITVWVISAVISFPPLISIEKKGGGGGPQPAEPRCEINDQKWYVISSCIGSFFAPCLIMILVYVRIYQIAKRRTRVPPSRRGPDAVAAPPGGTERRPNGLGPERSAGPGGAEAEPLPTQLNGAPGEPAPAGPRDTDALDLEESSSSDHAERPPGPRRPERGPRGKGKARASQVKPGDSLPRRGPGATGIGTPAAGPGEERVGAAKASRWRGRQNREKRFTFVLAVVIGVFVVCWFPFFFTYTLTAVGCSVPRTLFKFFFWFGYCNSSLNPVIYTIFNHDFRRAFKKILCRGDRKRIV
- experimentalDetails: Radioligand binding, adrenergic α2A (Protocol Group B)
- Set-up: purchased Milipore (Millipore)
- statedConditions: 0.1 μM compound; Protocol Group B; read-out: Percentage inhibition of ligand binding, Adrenergic α2A (0.1 μM)
Response body: numeric value in %, unit text excluded.

Solved cases below.
compound	unitAbbreviation	inhibition at 0.1 µM
Cc1cc(F)c2c(c1)c1c(n2CC(C)(O)c2cccnc2)CC2CCCN2C1 (single isomer, unassigned) [61c]	%	2
Cc1ccc2c(c1)c1c(n2CC(O)c2ccncc2)CCN2CCCC12 (single isomer, unassigned) [Compound No. 178d]	%	90

Okay, now this compound:
Entry Cc1cc2c3c(n(CC(C)(O)c4ccncc4)c2cc1Cl)CCN1CCCC31 (single isomer, unassigned) [50a] — recorded inhibition at 0.1 µM = 72

----------
- targetUnderTest: Human adrenergic α2B receptor (Homo sapiens)
- Sequence (P18089 whole entry): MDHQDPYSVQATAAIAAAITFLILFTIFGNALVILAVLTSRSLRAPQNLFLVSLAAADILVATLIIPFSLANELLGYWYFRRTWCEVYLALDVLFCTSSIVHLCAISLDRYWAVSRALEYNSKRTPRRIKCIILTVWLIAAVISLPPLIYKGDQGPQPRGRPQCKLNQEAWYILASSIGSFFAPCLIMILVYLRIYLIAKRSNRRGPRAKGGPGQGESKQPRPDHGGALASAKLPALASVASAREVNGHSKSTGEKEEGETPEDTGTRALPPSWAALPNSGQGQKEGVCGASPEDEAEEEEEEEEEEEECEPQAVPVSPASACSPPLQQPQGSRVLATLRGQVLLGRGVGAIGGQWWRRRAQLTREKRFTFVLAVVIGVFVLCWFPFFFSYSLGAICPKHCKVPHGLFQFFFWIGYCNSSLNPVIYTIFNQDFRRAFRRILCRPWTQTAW
- experimentalDetails: Radioligand binding, adrenergic α2B (Protocol Group B)
- Design: purchased Milipore (Millipore)
- statedConditions: Protocol Group B; estimated Ki; read-out: Ki α2B
readout: pKi
# pKi = -log10(concentration in molar units)

Lab note: measured pKi of Cc1ccc2c(c1)c1c(n2CC(OCC2CCC2)c2ccncc2)CCN2CCCC12 (single isomer, unassigned) [138a] was 9.02

Summary for this compound, Cc1ccc2c(c1)c1c(n2CC(C)(O)c2ccnc(F)c2)CCN2CCCC12 (single isomer, unassigned) [48b] : pKi is 9.05

For record Cc1cc2c3c(n(CC(C)(O)c4ccncc4)c2cc1Cl)CCN1CCCC31 (single isomer, unassigned) [50b] the listed pKi is 9.12

Recorded pKi (compound Cc1ccc2c(c1)c1c(n2CC(OC2CCCC2)c2ccncc2)CCN(C)C1 (single isomer, unassigned) [35a] ): 8.54

Data point: Cc1cc(F)c2c(c1)c1c(n2CC(C)(O)c2ccncc2)CCN2CCCC12 (single isomer, unassigned) [81a] ; pKi = 9.04

The recorded pKi for Cc1cc(F)c2c(c1)c1c(n2CC(O)c2ccncc2)CCN2CCCC12 (single isomer, unassigned) [137a] is 8.82

Reported pKi of CC(O)(Cn1c2c(c3cc(Cl)cc(F)c31)CN1CCCC1C2)c1ccncc1 (single isomer, unassigned) [86c] : 7.89

# pKi (compound: Cc1cc(C)c2c(c1)c1c(n2CC(C)(O)c2cccnc2)CCN2CCCC12 (single isomer, unassigned) [44b] ) is 9.09

pKi for Cc1ccc2c(c1)c1c(n2CC(O)c2ccncc2)CC[N+]2([O-])CCCC12 (stereo not drawn) [compound 23] is 8.65

get_value(item= CCOC(Cn1c2c(c3cc(C)ccc31)CN(C)CC2)c1ccncc1 (single isomer, unassigned) [43b] , readout=pKi) returns 8.68

Reported pKi ( Cc1ccc2c(c1)c1c(n2CC(C)(O)c2cccnc2)CC2CCCN2C1 (single isomer, unassigned) [38b] ) = 8.15

Entry CC(O)(Cn1c2c(c3cc(Cl)cc(F)c31)C1CCCN1CC2)c1cccnc1 (single isomer, unassigned) [53a] ; pKi = 8.77
